The compounds listed here are annotated with their composite z-score.
- MEASURED ON: Carbonic anhydrase 2 (Homo sapiens) (UniProt P00918)
- ASSAY NOTES: CAII small-molecule binders, profiling panel, biochemical, small-molecule microarray, Alexa647-labelled CAII (AID 1122)
- PROTOCOL CONDITIONS: CAII-A647 binding fluorescence, higher = more signal
Reply briefly: the number, and no unit.

Use the examples below as a reference point.
CCN(CC)c1ccc(N2CC=CC34O[C@@H]5C=CCOC(=O)[C@@H]5[C@H]3C(=O)N(C(C)CO)[C@@H]4C2=O)cc1 (stereo partly specified) :: 0.0808
COCCCNC(=O)[C@@]1(CCS(=O)(=O)c2ccccc2)N=C(c2ccc(OCCCO)cc2)O[C@H]1c1ccccc1CN=[N+]=[N-] :: 0.528
COc1ccc([Si](C)(C)[C@@H]2[C@@H](CC(=O)N3CCC[C@H]3CO)O[C@]3(C(=O)N(Cc4ccc(I)cc4)c4ccccc43)[C@H]2C)cc1 :: -0.0226

Ask: Return reported composite z-score; argument: CCN(CC)c1ccc(N2CC=CC34O[C@@H]5C=CCOC(=O)[C@@H]5[C@H]3C(=O)N(C(CO)C(C)C)[C@@H]4C2=O)cc1 (stereo partly specified)
Reply: -0.604

Ask: Same thing, different compound: `O=C(O)[C@H]1C[C@H]2C(=O)N[C@@H](Cc3ccccc3)C(=O)N2[C@H]1c1ccc(O)cc1`
Reply: 0.659

Ask: Same thing, different compound: CC(CO)N1C(=O)[C@@H]2C3C(=O)OCCC/C=C\[C@H]3OC23C=CCN(Cc2ccccc2)C(=O)[C@@H]13 (stereo partly specified)
Reply: 0.866

---

- ASSAY NOTES: basal S. cerevisiae growth modulation, no modifier, primary screen, OD600, strain BY4716, 24 h, basal condition (AID 1173)
- PROTOCOL CONDITIONS: OD600, 24 h, higher = more signal, called active from +8 up or from −8 down
The compounds listed here are annotated with their z-score.
Reply briefly: the number, and no unit.

O=C1N(CCS(=O)(=O)c2ccccc2)Cc2ccccc2[C@@H]2OC(c3ccc(OCCCO)cc3)=N[C@]12Cc1ccccc1 :: 1.72
CN(C)CCCC[C@@H]1NC(=O)[C@@H]2C[C@H](C(=O)NCCCCCNC(=O)CS)[C@H](c3cccc(OCCO)c3)N2C1=O :: -1.86
C=C(CCCC)/C(=C/C[C@@H](OC(=O)c1ccncc1)c1ccc(OCCO)cc1)c1cnc2ccccc2c1 :: -2.64

Moving on to another compound below.
Ask: Return reported z-score; argument: `C=C(COC)C(=O)CC[C@@H](OC(=O)c1ccccc1-c1ccccc1C(=O)O)c1cccc(OCCO)c1`
Reply: -0.749

---

- ASSAY NOTES: IGROV1 ovarian cancer cell cytotoxicity, dose response, PAX8 inhibitor project, plate reader, dry powder samples (AID 743043);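 further: more negative means fewer viable cells or more cytotoxicity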
- PROTOCOL CONDITIONS: series mostly up to 35 µM
Potency and affinity values are given separately. Results filed as inconclusive are left out. Activity calls are given as the source filed them. No rule for the calls is given here.
REPORTED PROPERTY: outcome

C[C@H]1CN([C@@H](C)CO)C(=O)c2cccc(NC(=O)Nc3cccc4ccccc34)c2O[C@H]1CN(C)CC1CC1 :: inactive
COc1ccc(S(=O)(=O)N(C)C[C@H]2OCCCC[C@@H](C)Oc3ccc(NS(=O)(=O)c4c(C)noc4C)cc3C(=O)N([C@H](C)CO)C[C@H]2C)cc1 :: inactive
COc1ccc(S(=O)(=O)N(C)C[C@H]2Oc3c(NC(=O)Nc4ccc(C(F)(F)F)cc4)cccc3C(=O)N([C@@H](C)CO)C[C@H]2C)cc1 :: inactive
COc1ccc(CN(C)C[C@H]2OCCCC[C@H](C)Oc3ccc(NC(=O)Nc4ccc(C(F)(F)F)cc4)cc3C(=O)N([C@H](C)CO)C[C@@H]2C)cc1 :: inactive
COc1ccc(CN(C)C[C@@H]2OCCCC[C@H](C)Oc3ccc(NC(=O)Nc4cccc5ccccc45)cc3C(=O)N([C@H](C)CO)C[C@H]2C)cc1 :: inactive

Ask: Return reported outcome; argument: `C[C@H](CO)N1C[C@H](C)[C@@H](CN(C)Cc2ccc(Cl)c(Cl)c2)Oc2ccc(NS(=O)(=O)c3ccccc3)cc2CC1=O`
Reply: inactive

Ask: Same thing, different compound: `Cc1ccc(S(=O)(=O)N(C)C[C@H]2Oc3ccc(NC(=O)Cc4ccccc4)cc3C(=O)N([C@H](C)CO)C[C@@H]2C)cc1`
Reply: inactive

---

- ASSAY NOTES: IOSE-T80 ovarian epithelial cell cytotoxicity, dose response, cytotoxicity control for PAX8 inhibitor project, plate reader, dry powder samples (AID 743045);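 further: 0% = neutral control median and -100% = positive control median; more negative values mean more cell killing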
- PROTOCOL CONDITIONS: IOSE-T80 ovarian epithelial cells; series mostly up to 35 µM
Potency and affinity values are given separately. The source made the active and inactive calls. The rule behind the calls is not given here.
REPORTED PROPERTY: activity change, negative = cytotoxicity

C[C@@H]1CCCCO[C@H](CN(C)C(=O)Cc2ccccc2)[C@@H](C)CN([C@@H](C)CO)C(=O)c2cc(NS(=O)(=O)c3ccc(Cl)cc3)ccc2O1 :: inactive
COc1ccccc1-c1ccc2c(c1)O[C@H](CN(C)Cc1ccc3c(c1)OCO3)[C@H](C)CN([C@@H](C)CO)S2(=O)=O :: inactive
C[C@@H]1CN([C@H](C)CO)S(=O)(=O)c2ccc(-c3ccc(C#N)cc3)cc2O[C@@H]1CN(C)Cc1cccc(F)c1 :: inactive
C[C@@H]1CN([C@@H](C)CO)C(=O)Cc2cc(NS(=O)(=O)c3ccc(Cl)cc3)ccc2O[C@@H]1CN(C)CC1CCCCC1 :: inactive

---

- ASSAY NOTES: HepG2 cell viability effects, profiling panel, calcein-AM fluorescence, 48 h, basal (AID 1164)
- PROTOCOL CONDITIONS: higher = more signal
REPORTED PROPERTY: z-score
Reply briefly: the number, and no unit.

COCCOC(=O)N1C(=O)[C@@]2(c3cc(C#CC4(O)CCCCCC4)ccc31)[C@H](c1ccc(O)cc1)N1[C@H](c3ccccc3)[C@H](c3ccccc3)OC(=O)[C@H]1[C@@H]2C(N)=O :: 0.638
CC(=O)NCCCC[C@@H]1NC(=O)[C@@H]2C[C@H](C(=O)O)[C@H](c3cccc(OCCO)c3)N2C1=O :: -0.988
O=C1c2ccccc2[C@](Cc2ccccc2I)(C(=O)O)[C@H](c2ccc(CO)cc2)N1Cc1ccccc1Cl :: -0.504
CC(C)CCC[C@@H](C)[C@H]1CC[C@@]2(C)C3=C(CC[C@]12C)[C@@]1(C)CC[C@H](OC(=O)CCl)C(C)(C)C1CC3 (some centres not stated) :: 1.17
C=C(COC)C(=O)CC[C@H](OC(=O)c1cccnc1)c1cccc(OCCO)c1 :: -1.38
C=CCC1(CC=C)C[C@H]2CO[C@H](c3ccc(OC)cc3)N2C1=O :: -0.88

Ask: Return reported z-score; argument: `COCCCN1C(=O)[C@@]2(Cc3ccccc31)c1ccccc1C(=O)N(Cc1ccccc1Cl)[C@H]2c1ccc(CO)cc1`
Reply: 0.0836

---

- ASSAY NOTES: A549 lung cancer cell viability effects, profiling panel, resazurin fluorescence, 24 h, PK04 Diversity Set (AID 1171)
- PROTOCOL CONDITIONS: higher = more signal, called active from +8 up or from −8 down
Decision: z-score >= 0.009 yields met, all other cases yield not met.

Check out these entries, answers already filled in.
COc1ccc([Si](C)(C)[C@@H]2[C@@H](CC(=O)N3CCC[C@H]3CO)O[C@]3(C(=O)N(Cc4ccc(N5CCC5=O)cc4)c4ccccc43)[C@H]2C)cc1 :: not met
C=C(COC)/C(=C/C[C@H](OC(C)=O)c1cccc(OCCO)c1)c1cc(C(=O)OC)ccc1OC :: not met
CC(C)(C)OC(=O)CC[C@@]12N=C(c3ccc(OCCCO)cc3)O[C@@H]1c1ccccc1N(Cc1ccccc1)C2=O :: met

Ask: Kindly determine if z-score recorded for `O=C1O[C@@H](c2ccccc2)[C@@H](c2ccccc2)N2[C@@H](c3ccc(OCCO)cc3)[C@]3(C(=O)Nc4ccc(C#CC5(O)CCCCCC5)cc43)[C@@H](C(=O)NC[C@H](O)c3ccccc3)[C@H]12` is above or exactly 0.009.
Reply: met

Ask: Same thing, different compound: `C=C(C(=O)CC[C@@H](OC(C)=O)c1ccccc1OCCO)C(C)C`
Reply: met

Ask: Same thing, different compound: `O=C(O)[C@H]1C[C@H]2C(=O)NCC(=O)N2[C@H]1c1cccc(OCCO)c1`
Reply: not met

Ask: Same thing, different compound: `CC(C)(C)OC(=O)CC[C@@]1(C(=O)NCc2ccccc2)N=C(c2ccc(OCCCO)cc2)O[C@@H]1c1ccccc1CN=[N+]=[N-]`
Reply: met

Ask: Same thing, different compound: `COc1ccc(C#Cc2ccc3c(c2)[C@]2(C(=O)N3)[C@H](c3ccc(O)cc3)N3[C@H](c4ccccc4)[C@H](c4ccccc4)OC(=O)[C@H]3[C@@H]2C(N)=O)cc1`
Reply: not met

Ask: Same thing, different compound: `C=C(COC)C(=O)CC[C@@H](OC(=O)c1ccccc1-c1ccccc1C(=O)O)c1cccc(OCCO)c1`
Reply: met

Ask: Same thing, different compound: `CN(C)CCCC[C@@H]1NC(=O)[C@@H]2C[C@H](C(=O)NCCCCCNC(=O)CS)[C@H](c3cccc(OCCO)c3)N2C1=O`
Reply: not met

Ask: Same thing, different compound: `CC(C)[C@@H](C(=O)O)n1cc(-c2ccccn2)nn1`
Reply: met

Ask: Same thing, different compound: `COC(=O)C(CC#Cc1ccc2c(c1)[C@]1(C(=O)N2)[C@H](C(N)=O)[C@H]2C(=O)O[C@H](c3ccccc3)[C@H](c3ccccc3)N2[C@@H]1c1ccc(O)cc1)C(=O)OC`
Reply: met

Ask: Same thing, different compound: `CCCNC(=O)[C@@]1(Sc2ccc(C)cc2)CC(=O)N(Cc2cc(C(F)(F)F)cc(C(F)(F)F)c2)[C@@H]1c1ccc(CO)cc1I`
Reply: not met

Ask: Same thing, different compound: CC(=O)OC(C/C=C\B1OC(C)(C)C(C)(C)O1)c1ccccc1 (stereo not given)
Reply: met

Ask: Same thing, different compound: `CC(C)(C)OC(=O)CC[C@@]12N=C(c3ccc(OCCCO)cc3)O[C@@H]1c1ccccc1CN(Cc1ccccc1)C2=O`
Reply: not met
